- tested_system: Cbl-b (truncated variant, UniProt number Q13191) (Homo sapiens, UniProt Q13191)
- Construct: made in house
- Sequence (Q13191 36-427): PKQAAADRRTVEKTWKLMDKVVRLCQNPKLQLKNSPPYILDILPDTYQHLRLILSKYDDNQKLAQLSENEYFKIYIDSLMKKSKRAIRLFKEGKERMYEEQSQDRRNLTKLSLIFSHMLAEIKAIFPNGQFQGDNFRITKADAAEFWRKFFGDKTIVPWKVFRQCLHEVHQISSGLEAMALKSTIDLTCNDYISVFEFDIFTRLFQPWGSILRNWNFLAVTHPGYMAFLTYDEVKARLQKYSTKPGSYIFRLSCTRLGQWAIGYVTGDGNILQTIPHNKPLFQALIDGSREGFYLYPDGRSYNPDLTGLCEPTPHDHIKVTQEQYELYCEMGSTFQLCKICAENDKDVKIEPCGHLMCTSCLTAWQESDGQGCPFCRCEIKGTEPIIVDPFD
- assay_summary: Cbl-b activity assay (TR-FRET, interaction of Cbl-b with UbcH5B-Ub)
- Type: biochemical
- experimental_context: high conditions: 100 mM NaCl, 60 nM Src kinase; 12 nM Cbl-b; read-out: Cbl-b activity IC50
pIC50: −log10 of the molar value.
# pIC50 per entry

[
  {
    "molecule": "COC(=O)C1(C(F)(F)F)CCN(C(=O)Nc2cccc([C@H](C)Cc3nncn3C)c2)C1 (stereo partly drawn)",
    "pIC50": "5.30 to 6.00"
  },
  {
    "molecule": "C[C@H](Sc1nncn1C)c1cccc(NC(=O)N2CC3(CCC3O)C2)c1 (stereo partly drawn)",
    "pIC50": "≤ 5.30"
  },
  {
    "molecule": "C[C@H](Cc1nncn1C)c1cccc(NC(=O)N2CCC(C(=O)O)(C(F)(F)F)C2)c1 (stereo partly drawn)",
    "pIC50": "5.30 to 6.00"
  },
  {
    "molecule": "C[C@@H](Sc1nncn1C)c1cccc(-c2cc(-c3ccccc3)no2)c1",
    "pIC50": "≤ 5.30"
  },
  {
    "molecule": "CC(C)C1CN(C(=O)Nc2cccc([C@H](C)Sc3nncn3C)c2)CCO1 (stereo partly drawn)",
    "pIC50": "≤ 5.30"
  },
  {
    "molecule": "C[C@H](Cc1nncn1C)c1cccc(NC(=O)N2CC(C)(C)Oc3cccnc32)c1",
    "pIC50": "> 7.00"
  },
  {
    "molecule": "C[C@H](Sc1nncn1C)c1cccc(NC(=O)N2CCC2)c1",
    "pIC50": "≤ 5.30"
  },
  {
    "molecule": "C[C@H](Sc1nncn1C)c1cccc(-n2ncc(-c3cccc(C(=O)O)c3)n2)c1",
    "pIC50": "5.30 to 6.00"
  },
  {
    "molecule": "C[C@H](Cc1nncn1C)c1cccc(NC(=O)N2CCCc3cccnc32)c1",
    "pIC50": "6.00 to 7.00"
  },
  {
    "molecule": "C[C@H](Sc1nncn1C)c1cccc(NC(=O)N2CCN(C)CC2)c1",
    "pIC50": "≤ 5.30"
  },
  {
    "molecule": "C[C@H](Cc1nncn1C)c1cccc(NC(=O)N2CCc3cccnc32)c1",
    "pIC50": "6.00 to 7.00"
  },
  {
    "molecule": "CC1CCN(C(=O)Nc2cccc([C@H](C)Sc3nncn3C)c2)C1 (stereo partly drawn)",
    "pIC50": "≤ 5.30"
  },
  {
    "molecule": "C[C@H](Sc1nncn1C)c1cccc(-n2ncc(-c3ccc(C(=O)O)cc3)n2)c1",
    "pIC50": "≤ 5.30"
  },
  {
    "molecule": "C[C@H](Sc1nncn1C)c1cccc(NC(=O)Nc2ccc(CC(=O)N(C)C)cc2)c1",
    "pIC50": "≤ 5.30"
  },
  {
    "molecule": "CC(Sc1nncn1C)c1cccc(-n2cc(-c3ccccc3)nn2)c1 (stereo not drawn)",
    "pIC50": "5.30 to 6.00"
  },
  {
    "molecule": "C[C@H](Sc1nncn1C)c1cccc(NC(=O)N2CCOC3(CCC3)C2)c1",
    "pIC50": "≤ 5.30"
  },
  {
    "molecule": "COc1cccc(NC(=O)Nc2cccc([C@H](C)Sc3nncn3C)c2)n1",
    "pIC50": "≤ 5.30"
  },
  {
    "molecule": "C[C@H](Sc1nncn1C)c1cccc(NC(=O)N2CCOCC2CO)c1 (stereo partly drawn)",
    "pIC50": "≤ 5.30"
  }
]

* * *

- tested_system: Cbl-b (truncated variant, UniProt number Q13191) (Homo sapiens, UniProt Q13191)
- Construct: made in house
- assay_summary: Cbl-b activity assay (TR-FRET, interaction of Cbl-b with UbcH5B-Ub)
- Type: biochemical
- experimental_context: high conditions: 100 mM NaCl, 60 nM Src kinase; 12 nM Cbl-b; read-out: Cbl-b activity IC50
- From the text: As described in Biological Example 1A, a Cbl-b activity assay (Cbl-b inhibition assay) used to measure the IC50 values for Cbl-b inhibition uses a mixture comprising candidate compound, Cbl-b (truncated, with an Avitag, and biotinylated), a fluorescently-labeled E2 enzyme UbcH5B labelled with ubiquitin conjugated to BODIPY-fluorescein (UbcH5B-Ub), streptavidin-terbium, and assay buffer. […] Inhibition of fluorescence energy transfer indicates Cbl-b activity. […]
Listed here: items and their measured IC50.
readout_kind: IC50

[
  {
    "molecule": "CC1CN(C(=O)Nc2cccc([C@H](C)Sc3nncn3C)c2)CC(=O)N1C (stereo partly shown)",
    "assay_value": "≥ 5000 nM"
  },
  {
    "molecule": "CCN1CCc2nc(NC(=O)Nc3cccc([C@H](C)Sc4nncn4C)c3)sc2C1",
    "assay_value": "≥ 5000 nM"
  },
  {
    "molecule": "CN1CC2(C1)CN(C(=O)Nc1cccc(C3(Cc4nncn4C)COC3)c1)c1ncccc1O2",
    "assay_value": "< 100 nM"
  },
  {
    "molecule": "Cn1cnnc1CC1(c2cccc(NC(=O)N3CC4(CCNC4)Oc4cccnc43)c2)COC1 (stereo not shown)",
    "assay_value": "< 100 nM"
  }
]

* * *

Readings of pIC50 for the listed molecules
- tested_system: Cbl-b (truncated variant, UniProt number Q13191) (Homo sapiens, UniProt Q13191)
- Construct: made in house
- assay_summary: Cbl-b activity assay (TR-FRET, interaction of Cbl-b with UbcH5B-Ub)
- Format: biochemical
- experimental_context: high conditions: 100 mM NaCl, 60 nM Src kinase; 12 nM Cbl-b; read-out: Cbl-b activity IC50
pIC50: −log10 of the molar value.

[
  {
    "molecule": "C[C@H](Sc1nncn1C)c1cccc(NC(=O)N2CCC23CCOC3)c1 (some centres unmarked)",
    "pIC50": "≤ 5.30"
  },
  {
    "molecule": "C[C@H](Sc1nncn1C)c1cccc(C(=O)Nc2ccc3ccccc3n2)c1",
    "pIC50": "≤ 5.30"
  },
  {
    "molecule": "COc1ccc(-c2cc(-c3cccc([C@H](C)Sc4nncn4C)c3)on2)cc1",
    "pIC50": "5.30 to 6.00"
  },
  {
    "molecule": "C[C@H](Sc1nncn1C)c1cccc(-c2cc(-c3ccc(CO)cc3)no2)c1",
    "pIC50": "5.30 to 6.00"
  },
  {
    "molecule": "C[C@H](Sc1nncn1C)c1cccc(NC(=O)N2CC(C(=O)N3CCC(O)CC3)C2)c1",
    "pIC50": "≤ 5.30"
  },
  {
    "molecule": "C[C@H](Sc1nncn1C)c1cccc(NC(=O)N2CCn3nccc3C2)c1",
    "pIC50": "≤ 5.30"
  },
  {
    "molecule": "C[C@H](Cc1nncn1C)c1cccc(NC(=O)N2CCOc3cc(Br)cnc32)c1",
    "pIC50": "6.00 to 7.00"
  },
  {
    "molecule": "C[C@H](Sc1nncn1C)c1cccc(-n2cc(-c3cccc(Cl)c3)nn2)c1",
    "pIC50": "5.30 to 6.00"
  },
  {
    "molecule": "Cn1cnnc1[C@H]1C[C@H]1c1cccc(NC(=O)N2CCOc3cccnc32)c1",
    "pIC50": "≤ 5.30"
  },
  {
    "molecule": "C[C@H](Sc1nncn1C)c1cccc(NC(=O)N2CCN(c3cccnc3)CC2)c1",
    "pIC50": "≤ 5.30"
  },
  {
    "molecule": "C[C@H](Cc1nncn1C)c1ccnc(C(=O)Nc2cccc(C(F)(F)F)n2)c1",
    "pIC50": "6.00 to 7.00"
  },
  {
    "molecule": "CNC(=O)c1ccc(-c2cn(-c3cccc([C@H](C)Sc4nncn4C)c3)nn2)cc1",
    "pIC50": "≤ 5.30"
  },
  {
    "molecule": "C[C@H](Cc1nncn1C)c1cccc(NC(=O)N2CCOc3cccnc32)c1",
    "pIC50": "> 7.00"
  },
  {
    "molecule": "C[C@H](Cc1nncn1C)c1cccc(-c2n[nH]c3c(N4CC[C@@H](O)C4)cc(C(F)(F)F)nc23)c1",
    "pIC50": "6.00 to 7.00"
  },
  {
    "molecule": "CC(Sc1nncn1C)c1ccnc(-c2cc(-c3ccccc3)no2)c1 (centres unmarked)",
    "pIC50": "≤ 5.30"
  },
  {
    "molecule": "C[C@H](Sc1nncn1C)c1cccc(-c2cc(-c3ccc(Cl)cc3)no2)c1",
    "pIC50": "5.30 to 6.00"
  },
  {
    "molecule": "COc1ccc(-c2cnn(-c3cccc([C@H](C)Sc4nncn4C)c3)n2)cc1",
    "pIC50": "6.00 to 7.00"
  }
]
